src = paper PMC9735573

- TEST SUMMARY: in vivo
- CONDITIONS: female, BALB/c, mouse, ip, 50 mg/kg
We begin with a simple list: items and their reported AUC.
METRIC: AUC (ng·h/mL)

Cc1nc(-c2ccc(C3N(C)c4ccc(F)cc4C(=O)N3c3ccccc3)s2)cs1 (centres unmarked): 18500
CN1c2ccc(F)cc2C(=O)N(c2ccccc2)C1c1ccc(-c2csc(CO)n2)s1 (centres unmarked): 6700

---

- TEST SUMMARY: in vivo
- CONDITIONS: female, BALB/c, mouse, iv, 2 mg/kg
METRIC: Tmax

Cc1nc(-c2ccc(C3N(C)c4ccc(F)cc4C(=O)N3c3ccccc3)s2)cs1 (stereo not shown): 5 min

---

- TEST SUMMARY: Pharmacokinetic study in mice, Retro-2.1 in PLGA–PEG–PLGA hydrogel, 25 mg/kg SC
- Format: in vivo
- CONDITIONS: female, BALB/c, mouse, plasma; SC injection of 25 mg/kg of Retro-2.1 in PLGA–PEG–PLGA, mice
METRIC: CL/F (mL/min/kg)

Cc1nc(-c2ccc(C3N(C)c4ccc(F)cc4C(=O)N3c3ccccc3)s2)cs1 (stereo not shown) [Retro-2.1]: 294

---

- TEST SUMMARY: in vivo
- CONDITIONS: female, BALB/c, mouse, ip, 2 mg/kg
METRIC: Tmax (min)

Cc1nc(-c2ccc(C3N(C)c4ccc(F)cc4C(=O)N3c3ccccc3)s2)cs1 (stereo not shown) [Retro-2.1]: 5

---

- TEST SUMMARY: in vivo
- CONDITIONS: female, BALB/c, mouse, iv, 2 mg/kg, Thalf (elimination half-life)
METRIC: half-life (h)

Cc1nc(-c2ccc(C3N(C)c4ccc(F)cc4C(=O)N3c3ccccc3)s2)cs1 (stereo not shown) [Retro-2.1]: 6.7

---

- TEST SUMMARY: in vivo
- CONDITIONS: female, BALB/c, mouse, ip, 50 mg/kg
Overview of recorded Cmax for various compounds
METRIC: Cmax (ng/mL)

CN1c2ccc(F)cc2C(=O)N(c2ccccc2)C1c1ccc(-c2csc(CO)n2)s1 (centres unmarked) [compound 3]: 2760
Cc1nc(-c2ccc(C3N(C)c4ccc(F)cc4C(=O)N3c3ccccc3)s2)cs1 (centres unmarked) [Retro-2.1]: 50600

---

- TEST SUMMARY: Pharmacokinetic study in mice, Retro-2.1 in PLGA–PEG–PLGA hydrogel, 25 mg/kg SC
- Type: in vivo
- CONDITIONS: female, BALB/c, mouse, plasma; SC injection of 25 mg/kg of Retro-2.1 in PLGA–PEG–PLGA, mice; flip-flop pharmacokinetics; read-out: Thalf (apparent elimination half-life) (converted)
METRIC: half-life (h)

CN1c2ccc(F)cc2C(=O)N(c2ccccc2)C1c1ccc(-c2csc(CO)n2)s1 (centres unmarked): 15
Cc1nc(-c2ccc(C3N(C)c4ccc(F)cc4C(=O)N3c3ccccc3)s2)cs1 (centres unmarked): 19
